# targetUnderTest: MELK (Homo sapiens)
# Sequence (Q14680 whole entry, looked up): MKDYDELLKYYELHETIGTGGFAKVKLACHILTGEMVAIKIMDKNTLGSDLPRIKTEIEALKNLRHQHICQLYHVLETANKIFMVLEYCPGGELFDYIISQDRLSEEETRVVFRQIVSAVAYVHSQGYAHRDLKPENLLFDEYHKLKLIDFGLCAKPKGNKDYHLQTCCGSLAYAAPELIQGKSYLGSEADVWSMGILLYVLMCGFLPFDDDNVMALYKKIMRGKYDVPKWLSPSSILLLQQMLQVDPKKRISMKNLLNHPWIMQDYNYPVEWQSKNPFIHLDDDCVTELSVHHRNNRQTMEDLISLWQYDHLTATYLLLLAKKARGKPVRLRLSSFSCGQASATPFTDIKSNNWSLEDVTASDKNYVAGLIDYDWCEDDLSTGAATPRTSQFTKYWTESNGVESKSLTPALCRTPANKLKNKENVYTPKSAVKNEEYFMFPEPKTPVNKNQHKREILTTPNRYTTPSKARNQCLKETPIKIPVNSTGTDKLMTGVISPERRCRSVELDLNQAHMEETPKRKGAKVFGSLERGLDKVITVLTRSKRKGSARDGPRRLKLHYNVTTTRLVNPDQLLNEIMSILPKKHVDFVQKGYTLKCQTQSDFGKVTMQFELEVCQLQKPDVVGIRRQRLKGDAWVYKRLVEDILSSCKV
# measurementNotes: Kinase assay: MELK activity, phosphorylation of FITC-labeled histone H3 peptide measured by IMAP fluorescence polarization
# Format: biochemical
# particulars: MELK kinase assay, IMAP fluorescence polarization, 50 micro-M ATP; read-out: IC50 (μM) (kinase assay)
Where a name gives a salt, the structure may show the parent alone.
Quick reference: IC50 of the listed items.
Answer with a number only, understood to be in µM.

Some compounds with known IC50 results, for comparison:
CC(=O)c1c(C)nc2ccc(-c3cc(Cl)c(O)c(Cl)c3)cc2c1N[C@H]1CC[C@H](CN(C)C)CC1 [Example 833, hydrochloride] ... 0.17
CCC(=O)c1cnc2ccc(-c3cc(F)c(O)c(Cl)c3)cc2c1Nc1ccc(N2CCC(N(C)C)C2)nc1 (stereo not drawn) ... 0.0062
CC(=O)c1cnc2ccc(-c3cc(F)c(O)c(Cl)c3)cc2c1Nc1ccc(N2CCC(N(C)C)C2)nc1 (stereo not drawn) ... 0.018
CN1CCC(n2cc(Nc3c(C(=O)C(C)(C)C)cnc4ccc(-c5cc(F)c(O)c(Cl)c5)cc34)cn2)CC1 [Example 930, hydrochloride] ... 0.017
CC(=O)c1cnc2ccc(-c3cc(Cl)c(O)c(Cl)c3)cc2c1Nc1cnn(C2CCN(C)CC2)c1 [Example 836, dihydrochloride] ... 0.0014

Answer with reported IC50 of CNC1CCCN(c2ccc(Nc3c(C(C)=O)cnc4ccc(-c5cc(F)c(O)c(Cl)c5)cc34)cn2)C1 (stereo not drawn) [Example 815, trihydrochloride]
0.0018

###

# Tested on: HT-1197 cells
# measurementNotes: Cell-based assay: anti-proliferative activity, Cell Counting Kit-8, 72 hours (HT-1197, negative control without MELK expression)
# particulars: Homo sapiens, HT1197, 72 h, HT1197 cells (negative control, no MELK expression), 72 hours
Counter-ions that a name gives are not always drawn.
Reported IC50 values are given for each entry in this list.
Number only, in µM; omit the unit.

Some entries whose results are on file:
CC(=O)c1cnc2ccc(-c3cc(Cl)c(O)c(Cl)c3)cc2c1N[C@@H]1CC[C@@H](CN(C)C)C1 ... 2
CC(=O)c1cnc2ccc(-c3cc(F)c(O)c(Cl)c3)cc2c1N[C@H]1CC[C@H](N(C)C)CC1 ... 1.8
CC(=O)c1cnc2ccc(-c3cnc(C#N)nc3)cc2c1Nc1ccc(CN(C)C)cc1 ... 0.8
CC(=O)c1cnc2ccc(-c3cc(F)c(O)c(Cl)c3)cc2c1N[C@H]1CC[C@H](CN2CCCC2)CC1 ... 1.3
O=C(c1cnc2ccc(-c3cc(Cl)c(O)c(Cl)c3)cc2c1Nc1ccc(CN2CCCC2)nc1)C1CC1 ... 4.5
CNC1CCN(c2ccc(Nc3c(C(=O)C4CC4)cnc4ccc(-c5cc(Cl)c(O)c(Cl)c5)cc34)cn2)C1 (stereo not shown) [Example 804, trihydrochloride] ... 1.4

From here, focus on the item given below.
Respond only with IC50 recorded for COc1cc(-c2ccc3ncc(C(=O)C4CC4)c(Nc4ccc(CN5CCN(C)CC5)cc4)c3c2)ccc1O
3.5

###

# System: 22Rv1 cells
# measurementNotes: Cell-based assay: anti-proliferative activity, Cell Counting Kit-8, 72 hours (22Rv1)
# particulars: Homo sapiens
Where a name gives a salt, the structure may show the parent alone.
property: IC50 (µM)
Quick reminder: number only, in µM, skip the unit.

CCC(=O)c1cnc2ccc(-c3cc(Cl)c(O)c(Cl)c3)cc2c1Nc1ccc(N2CCC(N(C)C)C2)nc1 (stereo not drawn) ... 0.59

Complete the entry with IC50 for CC(N)C(=O)N[C@H]1CC[C@H](Nc2c(C(=O)C(C)(C)C)cnc3ccc(-c4cc(Cl)c(O)c(Cl)c4)cc23)CC1 (stereo partly drawn) [Example 928, hydrochloride]
2

In one line, give reported IC50 of the entry CC(=O)c1cnc2ccc(-c3cc(Cl)c(O)c(Cl)c3)cc2c1N[C@H]1CC[C@H](NC(=O)[C@@H]2CCCN2)CC1 .
0.34

Give IC50 for CC(=O)c1cnc2ccc(-c3ccc4cc(O)ccc4c3)cc2c1N[C@H]1CC[C@H](CN(C)C)CC1 [Example 929, hydrochloride]
0.71

Determine its reported IC50: CC(=O)c1cnc2cc(C)c(-c3cc(Cl)c(O)c(Cl)c3)cc2c1Nc1ccc(N2CCN(C)CC2)nc1 [Example 866, hydrochloride]
4.1

Specify measured IC50 for CS(=O)(=O)c1cnc2ccc(-c3cc(Cl)c(O)c(Cl)c3)cc2c1Nc1cccc(CCN2CCCC2)c1 [Example 883, hydrochloride] .
1.5

###

# targetUnderTest: UniProt:Q14680
# measurementNotes: Kinase assay: MELK activity, phosphorylation of FITC-labeled histone H3 peptide measured by IMAP fluorescence polarization
# Assay type: biochemical
# particulars: read-out: IC50 (μM) (kinase assay)
Counter-ions that a name gives are not always drawn.
property: IC50 (µM)
The reply should contain only the number, in µM.

Take a look at these entries with their results.
COc1cc(-c2ccc3ncc(C(C)=O)c(N[C@H]4CC[C@H](CN5CCC(N)C5)CC4)c3c2)cc(Cl)c1O (stereo partly shown) [Example 780, hydrochloride] ... 0.002
CN(C)C[C@]1(O)CC[C@@H](Nc2c(C(=O)C3CC3)cnc3ccc(-c4cc(F)c(O)c(Cl)c4)cc23)CC1 ... 0.0042
COc1cc(-c2ccc3ncc(C(=O)C4CC4)c(N[C@H]4CC[C@H](CN5CCC(OC)C5)CC4)c3c2)cc(Cl)c1O (stereo partly shown) ... 0.005

Look up and report measured IC50 (UniProt:Q14680) for the following compound: CCC(=O)c1cnc2ccc(-c3cc(Cl)c(O)c(Cl)c3)cc2c1Nc1ccc(N2CCC(N)C2)nc1 (stereo not shown)
0.0026

Give IC50 for this entry on UniProt:Q14680: NC1CCCN(c2ccc(Nc3c(C(=O)C4CC4)cnc4ccc(-c5cc(F)c(O)c(Cl)c5)cc34)cn2)C1 (stereo not shown)
0.0027

For UniProt:Q14680, give IC50 of the listed compound: CNC1CCN(c2ccc(Nc3c(C(C)=O)cnc4ccc(-c5cc(Cl)c(O)c(Cl)c5)cc34)cn2)C1 (stereo not shown) [Example 788, trihydrochloride]
0.0017

Look up and report IC50, with UniProt:Q14680 as system, for CCN(CC)C[C@H]1CC[C@H](Nc2c(C(C)=O)cnc3ccc(-c4cc(Cl)c(O)c(Cl)c4)cc23)CC1
0.0018

###

# Test system: HT-1197 cells
# measurementNotes: Cell-based assay: anti-proliferative activity, Cell Counting Kit-8, 72 hours (HT-1197, negative control without MELK expression)
# particulars: Homo sapiens, HT1197, 72 h, HT1197 cells (negative control), 72 hours
Counter-ions that a name gives are not always drawn.
property: log10 of IC50 (log10 of the value in µM)
Heads up, the numbers here are log10 of IC50 in µM units.

Here are 5 compounds together with their reported answers.
CN(C)CCOc1ccc(Nc2c(S(C)(=O)=O)cnc3ccc(-c4cc(Cl)c(O)c(Cl)c4)cc23)cn1 [Example 884, hydrochloride] ... 1.11
CC(=O)c1cnc2ccc(-c3cc(Cl)c(O)c(Cl)c3)cc2c1N[C@H]1CC[C@H](NC(=O)[C@@H](N)C(C)(C)C)CC1 [Example 922, hydrochloride] ... 0.65
CN(C)C1CCN(c2ccc(Nc3c(S(C)(=O)=O)cnc4ccc(-c5cc(Cl)c(O)c(Cl)c5)cc34)cn2)C1 (stereo not drawn) [Example 906, hydrochloride] ... 0.97
O=C(c1cnc2ccc(-c3cc(F)c(O)c(Cl)c3)cc2c1N[C@H]1CC[C@H](CN2CCCC2)CC1)C1CC1 [Example 587] ... -0.26
CN[C@H]1CC[C@H](Nc2c(C(C)=O)cnc3ccc(-c4cc(Cl)c(O)c(Cl)c4)cc23)CC1 [Example 558] ... 1.00

Alright, here's another compound for you.
Recall and state the measured log10 of IC50 for O=C(c1cnc2ccc(-c3cc(Cl)c(O)c(Cl)c3)cc2c1N[C@H]1CC[C@H](CN2CC[C@@H](F)C2)CC1)C1CC1 [Example 571] .
-0.41

###

# targetUnderTest: MELK (Homo sapiens)
# measurementNotes: Kinase assay: MELK activity, phosphorylation of FITC-labeled histone H3 peptide measured by IMAP fluorescence polarization
# Assay type: biochemical
# particulars: read-out: IC50 (μM) (kinase assay)
property: IC50 (µM)
// return numeric value only (unit: µM, not printed)

Below are worked cases with known answers.
COc1cc(-c2ccc3ncc(C(=O)C4CC4)c(N[C@H]4CC[C@H](CN(C)CCO)CC4)c3c2)cc(Cl)c1O ... 0.0016
CN1CCCC(n2cc(Nc3c(C(=O)C4CC4)cnc4ccc(-c5cc(Cl)c(O)c(Cl)c5)cc34)cn2)C1 (stereo not shown) ... 0.0013
CCC(=O)c1cnc2ccc(-c3cc(F)c(O)c(Cl)c3)cc2c1Nc1ccc(N2CCN(C)CC2)nc1 ... 0.036
CCC(=O)c1cnc2ccc(-c3cc(F)c(O)c(Cl)c3)cc2c1N[C@H]1CC[C@H](CN(C)C)CC1 ... 0.004
CN(CCO)C[C@H]1CC[C@H](Nc2c(C(=O)C3CC3)cnc3ccc(-c4cc(F)c(O)c(Cl)c4)cc23)CC1 ... 0.0031

Identify the reported IC50 for the following entry. COc1cc(-c2ccc3ncc(C(=O)C4CC4)c(Nc4ccc(N5CCC(N(C)C)C5)nc4)c3c2)cc(Cl)c1O (stereo not shown)
0.013

Item CN1CCN(Cc2ccc(Nc3c(C(=O)C4CC4)cnc4ccc(-c5cc(Cl)c(O)c(Cl)c5)cc34)cn2)CC1 : provide IC50
0.018

Answer with reported IC50 of COc1cc(-c2cc(F)c3ncc(C(=O)C4CC4)c(N[C@H]4CC[C@H](N)CC4)c3c2)cc(Cl)c1O
0.26

# return recorded IC50 for input O=C(c1cnc2ccc(-c3cc(F)c(O)c(Cl)c3)cc2c1Nc1cnc(N2CCNCC2)nc1)C1CC1
0.0048

For the compound N[C@@H]1CCCN(c2ccc(Nc3c(C(=O)C4CC4)cnc4ccc(-c5cc(Cl)c(O)c(Cl)c5)cc34)cn2)C1 , give its reported IC50.
0.001

Quickly give me recorded IC50 for COc1cc(-c2ccc3ncc(C(C)=O)c(Nc4cnc(N5CCNCC5)nc4)c3c2)cc(Cl)c1O
0.0044

Consider the compound CC(=O)c1cnc2ccc(-c3cc(Cl)c(O)c(Cl)c3)cc2c1Nc1ccc(NCCN(C)C)nc1 . State its measured IC50.
0.0053
